- Target desc: T1, human CD3 E&D complex protein (Sino Biological Inc., CT026H0323H) (human, UniProt P07766 23-126; P04234 22-105)
- T1 construct: bought heterodimer; also called human CD3 protein (CT026H0323H)
- T1 sequence (P07766 23-126, chain 1 of 2): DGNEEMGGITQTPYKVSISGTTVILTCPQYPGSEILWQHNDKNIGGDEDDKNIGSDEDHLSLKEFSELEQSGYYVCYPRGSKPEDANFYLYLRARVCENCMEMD
- T1 sequence (P04234 22-105, chain 2 of 2): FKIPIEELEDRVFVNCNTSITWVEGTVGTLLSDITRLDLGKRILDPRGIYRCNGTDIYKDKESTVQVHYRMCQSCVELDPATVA
- Assay procedure: BLI, antibody on sensor
Measurement label: koff (s⁻¹)
Express it in s⁻¹; write the number only.

Name the recorded koff of the item hzsp34.105 (antibody, human IgG1, lambda, L234A L235A, V domains shown, CDR mutant of hzsp34.24; IgG1 L234A L235A, lambda) VH: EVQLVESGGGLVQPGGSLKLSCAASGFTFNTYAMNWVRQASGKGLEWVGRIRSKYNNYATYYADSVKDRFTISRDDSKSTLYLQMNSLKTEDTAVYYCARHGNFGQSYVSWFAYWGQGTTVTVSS VL: QAVVTQEPSLTVSPGGTVTLTCRSSTGAVTTRNYANWVQQKPGQAPRGLIGGTNKRAPGVPARFSGSLLGDKAALTLLGAQPEDEAEYYCALWYSNLWVFGQGTKLTVLG in your answer.
0.000307
